Data origin: the supplement of paper PMC10266784

B1: library; numbered along this chain (parent)
chain: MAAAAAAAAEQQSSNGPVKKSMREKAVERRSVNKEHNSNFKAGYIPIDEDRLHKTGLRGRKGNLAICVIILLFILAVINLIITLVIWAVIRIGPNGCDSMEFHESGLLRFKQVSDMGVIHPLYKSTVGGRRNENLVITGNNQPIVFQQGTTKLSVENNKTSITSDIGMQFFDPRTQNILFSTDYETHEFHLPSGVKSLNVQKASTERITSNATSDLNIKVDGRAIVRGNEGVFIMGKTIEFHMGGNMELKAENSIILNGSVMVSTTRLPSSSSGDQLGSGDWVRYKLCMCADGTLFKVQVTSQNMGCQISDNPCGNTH

# Variants of: B1
# TEST NAME: SGCB cell-surface expression functional score (HA stain, bin4 vs bin1, normalised to synonymous) (log10 ratio); higher = more cell-surface SGCB (functional)
Please mark fulfilled if the recorded SGCB cell-surface expression functional score (log10) is equal to or greater than 0.03, and not fulfilled if it falls below.

Would you please look over these solved cases?
T265Q :: fulfilled
L287M :: not fulfilled
K286A :: not fulfilled

Does the variant V155S have recorded SGCB cell-surface expression functional score (log10) that is 0.03 or more?
not fulfilled

For E101M then?
not fulfilled

Same thing, different variant: T83A
not fulfilled

And the next one, E101K ?
not fulfilled
